- study-target: MycN Protein (Homo sapiens, UniProt P04198)
- Construct: endogenous in cells; host or cells: HL-60 or SKNBE2
- test-summary: Degradation of MycN protein, Western blot band density in cells
- Format: cell-based
- run-conditions: HL-60 or SKNBE2 cells; 6 uL of compound (1 mM) added to 3 mL cells; 6 hours; Western blot band density (ImageJ)
The compounds listed here are annotated with their Dmax at 2 µM.
measured-quantity: Dmax at 2 µM

CN(c1nccc(Nc2cc(C3CC(F)(F)C3)[nH]n2)n1)[C@H]1CC[C@H](NC(=O)NC2Cc3ccc(C#N)cc3C2)CC1 (some centres unmarked) [Compound 145]
80 to 100%
N=C(NC1COC1)c1ccc2c(c1)CC(NC(=O)N[C@H]1CC[C@H](Nc3nccc(Nc4cc(C5CCCC5)[nH]n4)n3)CC1)C2 (some centres unmarked) [Compound 99]
< 20%
O=C(NC1CC2(COC2)C1)N[C@H]1CC[C@H](Nc2nccc(Nc3cc(C4CCCC4)[nH]n3)n2)CC1 [Compound 47]
< 20%
O=C(NC1CCN(Cc2ncccn2)CC1)N[C@H]1CC[C@H](Nc2nccc(Nc3cc(C4CCCC4)[nH]n3)n2)CC1 [Compound 75]
< 20%
CN(c1nccc(Nc2cc(C3CC3)[nH]n2)n1)[C@H]1CC[C@H](NC(=O)NC2Cc3cc(F)c(F)cc3C2)CC1 [Compound 151]
50 to 79%
O=C(NC1Cc2ccc(C3=NCC(O)CN3)cc2C1)N[C@H]1CC[C@H](Nc2nccc(Nc3cc(C4CCCC4)[nH]n3)n2)CC1 (some centres unmarked) [Compound 100]
< 20%
CN(c1nccc(Nc2cc(C3CCC3)[nH]n2)n1)[C@H]1CC[C@H](NC(=O)NC2Cc3ccc(C#N)cc3C2)CC1 (some centres unmarked) [Compound 144]
50 to 79%
O=C(NC1CCC(Nc2nccc(Nc3cc(C4CCCC4)[nH]n3)n2)CC1)NC1CC2(C1)CN(C1CC1)C2 (centres unmarked) [Compound 77]
< 20%
CCc1cc(Nc2ccnc(N[C@H]3CC[C@H](NC(=O)NC4Cc5ccc(C#N)cc5C4)CC3)n2)n[nH]1 (some centres unmarked) [Compound 8]
< 20%
Cc1cc(Nc2ccnc(N[C@H]3CC[C@H](NC(=O)NC4Cc5ccc(S(C)(=O)=O)cc5C4)CC3)n2)n[nH]1 (some centres unmarked) [Compound 115]
< 20%
CN1CCC(NC(=O)N[C@H]2CC[C@H](Nc3nccc(Nc4cc(C5CCCC5)[nH]n4)n3)CC2)CC1 [Compound 97]
20 to 49%
CC(=O)N1CC(NC(=O)N[C@H]2CC[C@H](Nc3nccc(Nc4cc(C5CCCC5)[nH]n4)n3)CC2)C1 [Compound 48]
< 20%
CS(=O)(=O)[C@H]1C[C@H](NC(=O)N[C@H]2CC[C@H](Nc3nccc(Nc4cc(C5CCCC5)[nH]n4)n3)CC2)C1 [Compound 57]
< 20%
FC(F)(F)C/N=C(\NC1CCOCC1)N[C@H]1CC[C@H](Nc2nccc(Nc3cc(C4CCCC4)[nH]n3)n2)CC1 [Compound 84]
< 20%

###

The compounds listed here are annotated with their Dmax at 2 µM.
- study-target: MycN Protein (Homo sapiens, UniProt P04198)
- Construct: endogenous in cells; host or cells: HL-60 or SKNBE2
- Sequence (P04198 1-464): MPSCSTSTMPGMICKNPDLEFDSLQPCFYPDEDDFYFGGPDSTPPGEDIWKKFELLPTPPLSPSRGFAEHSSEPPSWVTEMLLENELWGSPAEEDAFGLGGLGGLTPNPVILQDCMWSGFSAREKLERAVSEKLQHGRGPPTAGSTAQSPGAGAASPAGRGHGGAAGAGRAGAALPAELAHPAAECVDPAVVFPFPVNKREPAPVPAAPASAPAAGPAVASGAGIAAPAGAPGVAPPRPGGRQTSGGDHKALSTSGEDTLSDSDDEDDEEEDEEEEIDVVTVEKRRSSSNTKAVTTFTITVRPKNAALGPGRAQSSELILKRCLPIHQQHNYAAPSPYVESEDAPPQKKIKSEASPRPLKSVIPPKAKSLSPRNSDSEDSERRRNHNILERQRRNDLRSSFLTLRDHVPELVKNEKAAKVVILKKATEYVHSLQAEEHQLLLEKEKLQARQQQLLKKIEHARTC
- test-summary: Degradation of MycN protein, Western blot band density in cells
- Format: cell-based
- run-conditions: HL-60 or SKNBE2 cells; 6 uL of compound (1 mM) added to 3 mL cells; 6 hours; Western blot band density (ImageJ)
measured-quantity: Dmax at 2 µM

O=C(NC1CCC2(CC1)COC2)N[C@H]1CC[C@H](Nc2nccc(Nc3cc(C4CCCC4)[nH]n3)n2)CC1 [Compound 49]
< 20%
O=C(N[C@H]1CC[C@H](Nc2nccc(Nc3cc(C4CCCC4)[nH]n3)n2)CC1)N[C@H]1C[C@H](c2ccccc2)C1 [Compound 52]
80 to 100%
N#Cc1cccc([C@H]2C[C@H](NC(=O)N[C@H]3CC[C@H](Nc4nccc(Nc5cc(C6CCOC6)[nH]n5)n4)CC3)C2)c1 (stereo partly shown) [Compound 53]
< 20%
Cc1nc(-c2ccc3c(c2)CC(NC(=O)N[C@H]2CC[C@H](Nc4nccc(Nc5cc(C6CCCC6)[nH]n5)n4)CC2)C3)no1 (stereo partly shown) [Compound 20]
80 to 100%
Cc1cc(Nc2ccnc(N[C@H]3CC[C@H](NC(=O)N[C@H]4CC[C@H](S(C)(=O)=O)CC4)CC3)n2)n[nH]1 [Compound 32]
< 20%
Cc1cc(Nc2ccnc(N[C@H]3CC[C@H](NC(=O)NC4CCN(C(=O)C5CC5)CC4)CC3)n2)n[nH]1 [Compound 103]
< 20%
CN1CC(NCc2ccc3c(c2)CC(NC(=O)N[C@H]2CC[C@H](Nc4nccc(Nc5cc(C6CCCC6)[nH]n5)n4)CC2)C3)C1 (stereo partly shown) [Compound 107]
< 20%
O=C(N[C@@H]1CCC[C@H](C(F)(F)F)C1)N[C@H]1CC[C@H](Nc2nccc(Nc3cc(C4CCCC4)[nH]n3)n2)CC1 [Compound 35]
80 to 100%
Cc1cc(Nc2ccnc(N[C@H]3CC[C@H](NC(=O)N[C@@H]4CCC[C@@H](C(F)(F)F)C4)CC3)n2)n[nH]1 [Compound 120]
< 20%
O=C(NC1CCCC(N2CCCC2=O)C1)N[C@H]1CC[C@H](Nc2nccc(Nc3cc(C4CCCC4)[nH]n3)n2)CC1 (mixture of isomers) [Compound 27]
< 20%
O=C(Nc1cccc(C(F)(F)F)c1)N[C@H]1CC[C@@H](Nc2nccc(Nc3cc(C4CCCC4)[nH]n3)n2)CC1 [Compound 40]
50 to 79%
CN(c1nccc(Nc2cc(C3CC4(CC4)C3)[nH]n2)n1)[C@H]1CC[C@H](NC(=O)NC2Cc3ccc(C#N)cc3C2)CC1 (stereo partly shown) [Compound 148]
80 to 100%
CC1(NC(=O)N[C@H]2CC[C@H](Nc3nccc(Nc4cc(C5CCCC5)[nH]n4)n3)CC2)CCOCC1 [Compound 38]
20 to 49%
